Reference source: ChEMBL document CHEMBL2346598

microsomal CLint at 5 µM reference
# Test Protocol: Intrinsic clearance in mouse liver microsomes assessed per mg protein at 5 uM after 60 mins by LC/MS/MS analysis
# Format: ADME, Microsome
# Test Parameters: read-out: CLH
Assay Metric: microsomal CLint at 5 µM (µL/min/mg)

> print(dat)
                            smiles.notation              assay.metric  value.measured
1  CCc1c(C)sc(NC(=O)c2ccc(C(F)(F)F)cc2)c1C(=O)OC  microsomal CLint at 5 µM              12
2   CCc1c(C)sc(NC(=O)c2ccc(Cl)cc2)c1C(=O)OC  microsomal CLint at 5 µM             7.9
3    CCc1c(C)sc(NC(=O)c2ccc(C)cc2)c1C(=O)OC  microsomal CLint at 5 µM            7.73
4  CCc1c(C)sc(NC(=O)c2ccc(C(C)(C)C)cc2)c1C(=O)OC  microsomal CLint at 5 µM            8.98
